Values were extracted from patent US6770597B2.

// phytotoxicity rating XANST lookup, one value per entry
# Test system: cocklebur (Xanthium strumarium, XANST)
# test.description: Greenhouse herbicide screen, post-emerge application, phytotoxicity rating
# Format: in vivo
# test.settings: POST emergent, 250 g ai/ha, 14 days after application, scale 0-100
I'd appreciate a reply containing only the number, no unit.

CCOC(=O)NNC(=O)c1cc(-n2c(=O)cc(C(F)(F)F)n(C)c2=O)c(F)cc1Cl; 100
C#CCOC(=NN=C(C(C)(C)C)C(C)(C)C)c1cc(-n2c(=O)cc(C(F)(F)F)n(C)c2=O)c(F)cc1Cl; 55
Cn1c(C(F)(F)F)cc(=O)n(-c2cc(C(=O)NN(Cc3ccccc3)Cc3ccccc3)c(Cl)cc2F)c1=O; 90
CC1CCCC(C)N1NC(=O)c1cc(-n2c(=O)cc(C(F)(F)F)n(C)c2=O)c(F)cc1Cl (stereo not shown); 100
CC(=NNC(=O)c1cc(-n2c(=O)cc(C(F)(F)F)n(C)c2=O)c(F)cc1Cl)C(C)(C)C; 100
CC1CCCC(C)N1N=C(OC(=O)C(Cl)Cl)c1cc(-n2c(=O)cc(C(F)(F)F)n(C)c2=O)c(F)cc1Cl (stereo not shown); 100
CN(N=C(C(C)(C)C)C(C)(C)C)C(=O)c1cc(-n2c(=O)cc(C(F)(F)F)n(C)c2=O)c(F)cc1Cl; 100
CC1CCCC(C)N1NC(=O)c1cc(-n2c(=O)cc(C(F)(F)F)n(C)c2=S)c(F)cc1Cl (stereo not shown); 100
CC(=O)OC(=NN(C)C)c1cc(-n2c(=O)cc(C(F)(F)F)n(C)c2=O)ccc1Cl; 60

Let us examine a further case.
Value lookup for phytotoxicity rating XANST; key = "Cn1c(C(F)(F)F)cc(=O)n(-c2cc(C(=O)NNC(=O)OC(C)(C)C)c(Cl)cc2F)c1=O" 100

---

# System: field corn (Zea mays L., var. Dekalb 535, CORN)
# test.description: Greenhouse herbicide screen, pre-emerge application, crop damage rating
# Format: in vivo
# test.settings: PRE emergent, 250 g ai/ha, 14 days after application, rating scale 0-100
reported.endpoint: crop damage rating CORN
I'd appreciate a reply containing only the number, no unit.

Value lookup for crop damage rating CORN; key = "CN(C)NC(=O)c1cc(-n2c(=O)cc(C(F)(F)F)n(C)c2=O)ccc1Cl" 75

Value lookup for crop damage rating CORN; key = "Cn1c(C(F)(F)F)cc(=O)n(-c2cc(C(=O)NNC(=O)OC(C)(C)C)c(Cl)cc2F)c1=O" 100

Value lookup for crop damage rating CORN; key = CC1CCCC(C)N1NC(=O)c1cc(-n2c(=O)cc(C(F)(F)F)n(C)c2=S)c(F)cc1Cl (centres unmarked) 100

Value lookup for crop damage rating CORN; key = "CC(=O)OC(=NN(C)C)c1cc(-n2c(=O)cc(C(F)(F)F)n(C)c2=O)ccc1Cl" 90

Value lookup for crop damage rating CORN; key = CC1CCCC(C)N1NC(=O)c1cc(-n2c(=O)cc(C(F)(F)F)n(C)c2=O)c(F)cc1Cl (centres unmarked) 100

---

// phytotoxicity rating DIGSA lookup, one value per entry
# Tested on: large crabgrass (Digitaria sanguinalis, DIGSA)
# test.description: Greenhouse herbicide screen, post-emerge application, phytotoxicity rating
# Assay type: in vivo
# test.settings: POST emergent, 250 g ai/ha, 14 days after application, scale 0-100

Cn1c(C(F)(F)F)cc(=O)n(-c2cc(C(=O)NN=C(C(C)(C)C)C(C)(C)C)c(Cl)cc2F)c1=O; 70
Cn1c(C(F)(F)F)cc(=O)n(-c2cc(C(=O)NN(Cc3ccccc3)Cc3ccccc3)c(Cl)cc2F)c1=O; 100
CCOC(=O)NNC(=O)c1cc(-n2c(=O)cc(C(F)(F)F)n(C)c2=O)c(F)cc1Cl; 75

Value lookup for phytotoxicity rating DIGSA; key = "CN(C)NC(=O)c1cc(-n2c(=O)cc(C(F)(F)F)n(C)c2=O)ccc1Cl" 55

Value lookup for phytotoxicity rating DIGSA; key = "C#CCOC(=NN=C(C(C)(C)C)C(C)(C)C)c1cc(-n2c(=O)cc(C(F)(F)F)n(C)c2=O)c(F)cc1Cl" 50
